REPORTED PROPERTY: melting point

COMPOUND | RESULT
Cc1ccc(OCc2ccccc2[N+](=O)[O-])c(C=O)c1 | 124 °C
COc1cccc(/C(=C\C=C\C(=O)NCCCCc2cccnc2)c2ccccc2)c1 | 89 to 91 °C
CCN(CC)S(=O)(=O)c1cc(-n2c(=O)cc(C(F)(F)F)n(C)c2=O)c(F)cc1Cl | 190 to 191 °C
Cc1ccc(C(=O)P2(=O)Oc3ccccc3-c3ccccc32)c(C)c1 (configuration not stated) | 166 °C
COc1ccc(C=Cc2nc3c(OC)c(C)c(C)c(OC)c3[nH]2)cc1OC | 116 to 119 °C
CC(=O)c1cc(Cl)c(N)c(C#N)c1F | 180 to 182 °C
CCNC(=O)Nc1snc(C)c1C(=O)OCC | 150 to 151 °C
OC1c2cc(Cl)ccc2OCC1n1ccnc1 (configuration not stated) | 153 to 160 °C
O=C(O)COc1ccc2sc3ccccc3c(=O)c2c1 | 207 to 212 °C
CC(=O)SCC(C(=O)O)C(F)(F)F (configuration not stated) | 28 to 30 °C
Cc1cc(N)nc(Br)c1 | 99 °C
COCc1cc(-c2csc(N)n2)on1 | 137 to 138 °C
CC(C)(C)C(=O)N[C@H]1CC[C@H](CCN2CCN(c3nccc4c3OCC4)CC2)CC1 | 194 °C
COC(=O)C(C)(C)Cc1c(SC(C)(C)C)c2cc(OCc3ccc4cc(F)c(F)cc4n3)ccc2n1Cc1ccc(Cl)cc1 | 171 to 173 °C
Nc1c(C(=O)O)cnn1-c1ccc(Cl)cc1 | 169 to 171 °C
N#Cc1ccccc1-c1cc(-c2cnc3nccnn23)ccc1F | 211 to 215 °C
O=C(OCc1ccccc1)N1CCN(c2ccc(-c3ccnc(Cl)n3)cn2)CC1 | 145 to 147 °C

====

MOLECULE | melting point
CCOC(=O)c1cnc2c(C)csc2c1Cl | 113 to 115 °C
CCCC(CCC)C(=O)N[C@H](C(=O)N[C@H]1CCO[C@@H]1OC)C(C)C | 150 to 156 °C
O=C(O)c1ccc(OCc2ccc(F)cc2)cc1 | 109 to 110 °C
COc1ccc(Oc2ncnc(-c3ccc(C(F)(F)F)cc3F)c2N)cc1 | 129 to 130 °C
CCOC(=O)c1cn(C2CC2)c2nc(N3C[C@@H](CN)[C@@H](Cl)C3)c(F)cc2c1=O (relative stereo) | 163 to 167 °C

====

MOLECULE | melting point
Nc1cc2[nH]c(=O)ccc2cn1 | > 275 °C
Cc1cc(Cl)cc(NC(=O)C=NO)c1 | 206 to 207 °C
Cc1cc2cc(CN3CCCC3)cnc2cc1NC(=O)c1ccc(-c2ccc(Cl)cc2)cc1F | 195 to 198 °C
O=[N+]([O-])c1ccc2c(c1)C(O)Cc1ccc(F)cc1S2 (centres undefined) | 149 to 151 °C
CCCCc1nn(-c2ccccc2C(F)(F)F)c(=O)n1Cc1ccc(-c2ccccc2S(=O)(=O)NC(=O)C2CC2)cc1 | 187 to 189 °C
O=Cc1c(Cl)nc2ccc(Cl)cn12 | 165 to 166 °C
N#Cc1c(O)nc2ccc(Cl)cc2c1O | 275 to 277 °C
Cc1oc(-c2ccco2)nc1COc1ccc(Cc2nc(CCC(=O)O)c(-c3ccccc3)o2)cc1 | 154 to 155 °C
CCOC(=O)C1=C(C)NC(COCc2cccnc2)=C(C(=O)OCC)C1c1ccccc1[N+](=O)[O-] (centres undefined) | 133 to 135 °C

====

INPUT SMILES | melting point
NCc1cccc(OCCC(=O)O)c1 | 134 to 138 °C
c1ccc(-c2cc3nnc(-c4cnccn4)n3nc2OCc2nc[nH]n2)cc1 | 255 °C
CCCCNS(=O)(=O)c1cc(C(=O)OCC)cc(NCc2ccccc2)c1Oc1ccccc1 | 149 to 150 °C
COc1ccc(-n2c(-c3cc(-c4ccc(S(C)(=O)=O)cc4)c(N4CCOCC4)s3)nc3ccccc3c2=O)cc1 | 240 to 243 °C
O=C(Cl)c1cc([N+](=O)[O-])ccc1F | 59 to 60 °C
Cc1oc2c(-c3ccc(F)cc3)c(-c3ccc(S(C)(=O)=O)cc3)nn2c1-c1cccs1 | 240 to 241 °C
Nc1ccnc(C(F)(F)F)c1 | 56 to 58 °C

====

Catalogue of melting point values

MOLECULE | melting point
CSCc1cc2ccccc2n(-c2ccccc2)c1=O | 138 to 140 °C
CCc1nc2c(cnn2CC)c(NC2CCOCC2)c1CNC(=O)c1cccc(C(=O)NCc2ccc(OC)c(Br)c2)c1 | 130 to 132 °C
CCCCNC1NC(=O)N(c2cccc(C(F)(F)F)c2)C(=O)N1 | 245 to 247 °C
O=[N+]([O-])C1NC=CN1c1cccnc1 (centres undefined) | 261 °C
CN1C(=O)CC(c2c[nH]c3ccc(Br)cc23)C1=O (centres undefined) | 194 to 195 °C
Nc1cccc2c1C(=O)N([C@@H]1CCC(=O)NC1=O)C2=O | 308 to 310 °C
CCOC(=O)C(C#N)=NOC(=O)OCc1ccccc1 | 101 to 102 °C
CON=C1CSc2cccc(Cl)c2CN1 | 120 to 121 °C
CCCCCC1C=CC(c2ccc(C(F)(F)F)cc2)=CC1 (centres undefined) | 54 °C
O=C(O)c1ccc(-c2ccc(-c3ccc(C(F)(F)F)cc3)s2)cc1 | 284 to 285 °C
CNC(=O)[C@H](Cc1ccc(OCc2ccccc2)cc1)NC(=O)[C@H](CC(C)C)N[C@H](C)C(=O)OC | 65 to 68 °C
CN(C(=O)C(C#N)C(=O)c1nn(-c2ccccc2)c2c1COc1ccccc1-2)c1ccccc1 (centres undefined) | 183 to 184 °C
Cc1ccc(S(=O)(=O)OCC2CN(c3cc(F)c(N4CCN(C(=O)OC(C)(C)C)CC4)c(F)c3)C(=O)O2)cc1 (centres undefined) | 150 to 152 °C
COC(=O)C1=C(C)NC(C)=C(C(=O)OC)C1c1ccccc1F | 206 to 208 °C
NC(=O)CCc1ccnc(-c2nc(=O)c3ccccc3s2)c1 | 237 to 240 °C
CCCc1cc(CC(=O)O)ccc1OC1COc2ccc(C(C)=O)c(O)c2C1 (centres undefined) | 129 to 130 °C
Cc1c(N2CC[C@@H](C3(NCCO)CC3)C2)c(F)cc2c(=O)c(C(=O)O)cn([C@@H]3C[C@@H]3F)c12 | 168 to 170 °C
O=C(O)c1ccc(Br)cc1C(=O)c1ccccc1 | 185 to 187 °C
CCCCc1nc2c(C#N)ncc(C)c2[nH]1 | 197 to 198 °C
O=C(O)c1ccc(-c2nc(-c3cccc(OC(F)(F)F)c3)cs2)cc1 | 233 to 234 °C
O=C1NCC=C2N=CN=C12 | 242 to 245 °C
CCOC(=O)C1CN(C(=O)c2cc(OC)c(OC)c(OC)c2)CCN1C(=O)c1cc(OC)c(OC)c(OC)c1 (centres undefined) | 130 °C
Cc1noc(NC(=O)N2CCN(c3nc(-c4cccc(Cl)c4Cl)cs3)CC2)c1C | 175 to 176 °C
CCn1cc(-c2c(-c3ccccc3F)nn3ccncc23)ccc1=O | 173 to 174 °C
O=C1OC(Cc2ccccc2)=NC1=Cc1cccs1 | 193 to 195 °C
CCCCCCCCCCCCCCS(=O)(=O)NC(=O)Nc1c(C(C)C)cccc1C(C)C | 135 to 137 °C
CONc1nc(N)nc2c1ncn2[C@@H]1C[C@H](CO)[C@@H](O)[C@H]1O | 106 to 110 °C
Oc1c2c(nn1-c1ccccn1)CCc1cc(-c3ccccc3)ccc1-2 | 133 to 134 °C
O=C(c1cccs1)C1CCN(CCc2ccccc2)CC1 | 77 to 79 °C

====

REPORTED PROPERTY: melting point

COMPOUND | REPORTED PROPERTY | RESULT
Cc1cccc(-n2ccc(=O)c(-c3ccnn3-c3ccccc3)n2)c1 | melting point | 115 to 116 °C
Cc1c(Cl)cc(C2=NNC(=O)C(S)C2)cc1Cl (stereo not drawn) | melting point | 184 to 187 °C
COc1cccc(Cc2cnc(-c3ccccc3)c(-c3ccccc3)n2)c1 | melting point | 65 to 66 °C
CCNC(=O)c1c([Si](C)(C)C)ccc(/C=C/[N+](=O)[O-])c1Cl | melting point | 104 to 106 °C
CCOC(=O)c1c[nH]c2cccc(O)c12 | melting point | 151 to 153 °C
CCSc1nc(-c2ccccc2)c(-c2ccccc2)s1 | melting point | 73 to 74 °C
CC1c2cc(O)ccc2-c2ccc(O)cc21 | melting point | 192 to 196 °C
NS(=O)(=O)c1cscc1C(=O)O | melting point | 222 to 224 °C
